test system: MALME-3M melanoma; test: NCI-60 one-dose screen, 48 h; conditions: 10 µM unless noted
About 83,000 compounds went through this panel and 20% of them were active in at least one assay; those are over-represented in the sample as a whole. Activity calls are given as the source filed them. Rule for the calls: active = growth percent below 10; inactive = the rest.
Labels: True = active, False = inactive

Compound: CCn1cc(CNc2ccc(C(=O)Nc3cc4cc(OC)c(OC)cc4c(C)n3)cc2)c(C)n1
Label: False

Compound: O=C(CCCCl)NNc1nccc(Nc2ccc(S(=O)(=O)Nc3ccncc3)cc2)n1
Label: False

Compound: CN1CCN(c2ccc3c(c2)nc(NNC(=O)c2cnccn2)c2cccn23)CC1
Label: False

Compound: COc1ccc2c(O)c(/C=C3\N=Nc4ccccc43)oc2c1C[C@H]1CCNC[C@H]1F
Label: False

Compound: COc1ccccc1-n1c(-c2cc(O)ccc2C)cn2c3c(=O)[nH]c(=O)n(C)c3nc12
Label: False

Compound: N#Cc1c(-c2ccccc2)c(C#N)c2c(C#N)c(N)nn2c1N
Label: False

Compound: COC(=O)/C(CCC=C(C)C)=C1\[C@@H](OC(C)=O)C[C@@]2(C)[C@H]1CC(=O)[C@H]1[C@@]3(C)CCC(N4CCCC4)[C@@H](C)[C@@H]3CC[C@@]12C (some centres undefined)
Label: False

Compound: CC[C@H](Nc1nc(N)nc(C)c1C#N)c1nc2cccc(NCCCCCC(=O)NO)c2c(=O)n1-c1ccccc1
Label: False

Compound: N=C(N)c1ccc(-c2ccc(-c3ccc(Cl)cc3)o2)o1
Label: False

Compound: O=C(/C=C/c1cccc(Cl)c1)c1cccc(OCCCCOc2cccc(C(=O)/C=C/c3cccc(Cl)c3)c2)c1
Label: False

Compound: Oc1c(Cl)cc(Cl)c2ccc(Cn3cc(-c4cccc(C(F)(F)F)c4)nn3)nc12
Label: False

Compound: N=c1sc(Cc2cc(Cl)ccc2Cl)cn1CC(=O)c1ccccc1
Label: False

Compound: Cc1cc(C)cc(Nc2ccc([N+](=O)[O-])c(NCCN3CCOCC3)n2)c1
Label: False

Compound: COc1cc(C#Cc2ccc(=O)oc2C#Cc2ccccc2)cc(OC)c1OC
Label: False

Compound: O=C(/C=C/c1ccccc1)Nc1ncc(Cc2ccccc2)s1
Label: False

Compound: CCCCCCCCCCCCCCCCCCOc1ccccc1CC(=O)NCC[N+]1(C)CCOCC1
Label: False

Compound: COc1ccc(C2=Nc3c(N)ncnc3NC(c3cccc(Nc4ccnc5cc(C(F)(F)F)ccc45)c3)C2)cc1 (centres undefined)
Label: False

Compound: Cn1cc(C(=O)c2nc(-c3c[nH]c4ccc(Br)cc34)no2)c2cc(Br)ccc21
Label: False

Compound: CCOC(=O)C1=C(C)N=C2SC=C(c3ccccc3)N2[C@H]1c1cn[nH]c1-c1ccc(Cl)cc1
Label: True
